B1: Probable early E4 11 kDa protein (Human adenovirus C serotype 5 (HAdV-5)), P04489 (parent)
chain: MIRCLRLKVEGALEQIFTMAGLNIRDLLRDILRRWRDENYLGMVEGAGMFIEEIHPEGFSLYVHLDVRAVCLLEAIVQHLTNAIICSLAVEFDHATGGERVHLIDLHFEVLDNLLE

variants of: B1; settings: with PML
parameter: effect of a mutation on the interaction

MIRCLRLKVAGALEQIFTMAGLNIRDLLRDILRRWRDENYLGMVEGAGMFIEEIHPEGFSLYVHLDVRAVCLLEAIVQHLTNAIICSLAVEFDHATGGERVHLIDLHFEVLDNLLE [E10A] : decreasing interaction
MIRALRLKVEGALEQIFTMAGLNIRDLLRDILRRWRDENYLGMVEGAGMFIEEIHPEGFSLYVHLDVRAVCLLEAIVQHLTNAIICSLAVEFDHATGGERVHLIDLHFEVLDNLLE [C4A] : decreasing interaction
MIRCLRLKVEGALEQIFTMAGLNIRDLLRDILRRWRDENYLGMVEGAGMFIEEIHPEGFSLYVHLDVRAVCLLAAIVQHLTNAIICSLAVEFDHATGGERVHLIDLHFEVLDNLLE [E74A] : decreasing interaction
